# EXPERIMENTAL SYSTEM: JAK1 (recombinant purified GST-tagged catalytic domain) (Homo sapiens (Human), UniProt P23458);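 further: biochemical assay with HTRF read-out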
# Sequence (P23458 875-1153): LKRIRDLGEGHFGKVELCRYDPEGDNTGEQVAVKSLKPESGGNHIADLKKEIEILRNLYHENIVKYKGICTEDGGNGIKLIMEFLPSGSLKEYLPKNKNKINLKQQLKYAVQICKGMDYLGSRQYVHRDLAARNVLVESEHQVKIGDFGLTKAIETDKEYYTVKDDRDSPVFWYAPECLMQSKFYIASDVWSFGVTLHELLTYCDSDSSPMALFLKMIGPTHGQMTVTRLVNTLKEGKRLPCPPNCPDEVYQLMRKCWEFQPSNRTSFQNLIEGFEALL
# TEST DETAILS: biochemical
RESULT TYPE: IC50 (nM)

Answered examples (4):
* N#C[C@H]1C[C@@H](C(=O)N[C@H](C2CC2)C(F)(F)F)CC[C@@H]1n1cc(C(N)=O)c(Nc2ccc(Cl)cc2)n1 (single isomer, unassigned) [Example 35-14] | 9
* CN(CCC(F)(F)F)[C@@H]1CC[C@H](n2cc(C(N)=O)c(Nc3ccc(S(=O)(=O)C(F)(F)F)cc3)n2)[C@@H](C#N)C1 (single isomer, unassigned) [Example 28-170] | 11
* N#C[C@H]1C[C@H](N2CCC2)CC[C@@H]1n1cc(C(N)=O)c(Nc2ccc(C(F)F)nc2)n1 (single isomer, unassigned) [Example 28-50] | 2
* N#C[C@H]1C[C@H](N2CC(O)(C(F)(F)F)C2)CC[C@@H]1n1cc(C(N)=O)c(Nc2ccc(C(F)(F)F)cc2)n1 (single isomer, unassigned) [Example 28-201] | 2

[P] N#C[C@H]1C[C@@H](OC(=O)NC2CCCCC2)CCC1n1cc(C(N)=O)c(Nc2ccc(F)cc2)n1 (mixture of isomers) [Example 34-2]
[Q] N#C[C@H]1CCCC[C@@H]1n1cc(C(N)=O)c(Nc2ccc(F)nc2)n1 (single isomer, unassigned) [Example 17-19]
Q: Among P and Q , which shows a numerically higher IC50 result? Give the label of your selection.
Ans: P
(P: 5 nM, Q: 3 nM)

[P] N#C[C@@H]1C[C@H](OCC2CC2)CC[C@@H]1n1cc(C(N)=O)c(Nc2ccnc(F)c2)n1 (single isomer, unassigned) [Example 26-4]
[Q] N#C[C@H]1CCCC[C@@H]1n1cc(C(N)=O)c(Nc2ccc([C@H](O)C(F)(F)F)nc2)n1 (single isomer, unassigned) [Example 17-50]
Q: Field: lower recorded IC50 (choose P or Q ) Give the label of your selection.
Ans: Q
(Q: 0.2 nM, P: 21 nM)

[P] C[C@@]1(O)CC[C@H](n2cc(C(N)=O)c(Nc3ccc(Cl)cc3)n2)[C@@H](C#N)C1 (single isomer, unassigned) [Example 32-13]
[Q] C[C@H](NC1CC[C@H](n2cc(C(N)=O)c(Nc3ccc(C(F)(F)F)cc3)n2)[C@@H](C#N)C1)C1CC1 (single isomer, unassigned) [Example 28-191]
Q: Among P and Q , which shows a numerically higher IC50 result? Give the label of your selection.
Ans: P
(P: 3 nM, Q: 0.9 nM)
